Cited source for all entries: patent US20130096302A1

Molecular target: full length Aurora-A (AA 1-403) (Homo sapiens)
Sequence (O14965 1-403): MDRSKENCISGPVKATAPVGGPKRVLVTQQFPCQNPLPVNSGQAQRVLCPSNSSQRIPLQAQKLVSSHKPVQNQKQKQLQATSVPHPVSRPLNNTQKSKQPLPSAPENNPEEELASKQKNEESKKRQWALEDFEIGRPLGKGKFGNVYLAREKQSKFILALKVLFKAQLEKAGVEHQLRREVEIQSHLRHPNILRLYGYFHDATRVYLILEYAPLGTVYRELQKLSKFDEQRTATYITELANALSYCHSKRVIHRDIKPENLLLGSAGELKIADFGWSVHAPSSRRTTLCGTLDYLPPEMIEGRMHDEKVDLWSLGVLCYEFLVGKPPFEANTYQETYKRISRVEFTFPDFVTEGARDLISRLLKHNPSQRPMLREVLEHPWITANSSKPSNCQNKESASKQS
MEASUREMENT_NAME: Ki

Q: Find the measured Ki: item C[C@H](Nc1nc(-c2c[nH]c3ncc(Cl)nc23)ncc1F)c1ccc(F)cc1 , target or system full length Aurora-A (AA 1-403) (Homo sapiens).
Ans: < 200 nM
